Documented PC3 % INH [31.6 μM] across a set of compounds
Test system: PC3 (human prostate carcinoma) cells
Experiment: XTT cytotoxicity assay, PC3 cells
Assay type: cell-based
Conditions: 31.6 μM, second set of experiments
Numeric only. Scale: %

Completed entries (count: 3):
> print(dat)
                           structure.string       property.label  reported
1   CCCCCCCCC=CCCCCCCCCOP(=O)(O)OCCN1CCCCC1  PC3 % INH [31.6 μM]      16.2
2  CCCCCCCCCCCCCCCCOP(=O)([O-])OCCCC[N+](C)(C)C  PC3 % INH [31.6 μM]      51.6
3  CCCCCCCCCCOCCOCCOP(=O)([O-])OCC[N+]1(C)CCCCC1  PC3 % INH [31.6 μM]      13.4

// below: PC3 % INH [31.6 μM] requested for another compound
For reference, reported PC3 % INH [31.6 μM] for `CCCCCCCCCCCCCCCCOP(=O)([O-])OCC[N+]1(C)CCCCC1` stands at 50.1
